Test Summary: Volume of distribution in nude mice at 10 mg/kg, iv
Assay type: ADME, organism-based
Set-up: dose 10 mg/kg, route intravenous
Measurement Context: mouse, in vivo, read-out: Vdss
Experimental Endpoint: Vd

*Q* Quick check: Vd of COc1ccc(N2Cc3cnc(Nc4ccc(F)cc4)nc3N(C3CC[C@@H](O)C3)C2=O)cc1 (single isomer, unassigned) ?
*A* 1.9 L/kg

====

Test Summary: AUC in nude mice at 200 mg/kg, po
Type: ADME, organism-based
Design: dose 200 mg/kg, route oral
Measurement Context: mouse, plasma
Experimental Endpoint: AUC (µg·h/mL)
Value expressed in µg·h/mL; do not type the unit.

*Q* Quick check: AUC of COc1ccc(N2Cc3cnc(Nc4ccc(F)cc4)nc3N(C3CC[C@@H](O)C3)C2=O)cc1 (single isomer, unassigned) ?
*A* 260

====

Test Summary: Clearance in Wistar rat at 5 mg/kg, iv
Type: ADME, organism-based
Design: dose 5 mg/kg, route intravenous
Measurement Context: in vivo
Experimental Endpoint: clearance (mL/min/kg)
Value expressed in mL/min/kg; do not type the unit.

*Q* Quick check: clearance of COc1ccc(N2Cc3cnc(Nc4ccc(F)cc4)nc3N(C3CC[C@@H](O)C3)C2=O)cc1 (single isomer, unassigned) ?
*A* 32.5

====

Test Summary: AUC in Wistar rat at 50 mg/kg, po
Type: ADME, organism-based
Parameters: dose 50 mg/kg, route oral
Measurement Context: plasma
Experimental Endpoint: AUC (ng·h/mL)
Value expressed in ng·h/mL; do not type the unit.

*Q* Quick check: AUC of COc1ccc(N2Cc3cnc(Nc4ccc(F)cc4)nc3N(C3CC[C@@H](O)C3)C2=O)cc1 (single isomer, unassigned) ?
*A* 40900

====

Test Summary: AUC in nude mice at 10 mg/kg, iv
Type: ADME, organism-based
Design: dose 10 mg/kg, route intravenous
Measurement Context: mouse, plasma
Experimental Endpoint: AUC (ng·h/mL)
Value expressed in ng·h/mL; do not type the unit.

*Q* Quick check: AUC of COc1ccc(N2Cc3cnc(Nc4ccc(F)cc4)nc3N(C3CC[C@@H](O)C3)C2=O)cc1 (single isomer, unassigned) ?
*A* 12100

====

Assayed System: RAC-alpha serine/threonine-protein kinase (Homo sapiens)
Sequence (P31749 whole entry): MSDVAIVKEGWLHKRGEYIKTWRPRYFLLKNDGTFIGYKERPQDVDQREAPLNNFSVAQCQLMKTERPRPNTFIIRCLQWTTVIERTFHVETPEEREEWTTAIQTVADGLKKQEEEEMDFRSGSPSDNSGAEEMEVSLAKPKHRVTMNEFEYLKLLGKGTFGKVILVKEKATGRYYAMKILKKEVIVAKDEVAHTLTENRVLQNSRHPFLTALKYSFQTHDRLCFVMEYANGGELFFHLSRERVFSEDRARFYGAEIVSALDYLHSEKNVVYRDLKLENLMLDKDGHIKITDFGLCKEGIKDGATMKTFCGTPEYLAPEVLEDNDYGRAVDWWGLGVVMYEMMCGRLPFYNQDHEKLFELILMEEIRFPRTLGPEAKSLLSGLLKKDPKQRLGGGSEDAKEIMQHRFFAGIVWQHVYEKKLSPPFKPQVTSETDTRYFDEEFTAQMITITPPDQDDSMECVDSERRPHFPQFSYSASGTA
Experimental Endpoint: IC50

*Q* Quick check: IC50 of COc1ccc(N2Cc3cnc(Nc4ccc(F)cc4)nc3N(C3CC[C@@H](O)C3)C2=O)cc1 (single isomer, unassigned) ?
*A* > 125 µM

====

Assayed System: Vascular endothelial growth factor receptor 2 (Homo sapiens)
Sequence (P35968 whole entry): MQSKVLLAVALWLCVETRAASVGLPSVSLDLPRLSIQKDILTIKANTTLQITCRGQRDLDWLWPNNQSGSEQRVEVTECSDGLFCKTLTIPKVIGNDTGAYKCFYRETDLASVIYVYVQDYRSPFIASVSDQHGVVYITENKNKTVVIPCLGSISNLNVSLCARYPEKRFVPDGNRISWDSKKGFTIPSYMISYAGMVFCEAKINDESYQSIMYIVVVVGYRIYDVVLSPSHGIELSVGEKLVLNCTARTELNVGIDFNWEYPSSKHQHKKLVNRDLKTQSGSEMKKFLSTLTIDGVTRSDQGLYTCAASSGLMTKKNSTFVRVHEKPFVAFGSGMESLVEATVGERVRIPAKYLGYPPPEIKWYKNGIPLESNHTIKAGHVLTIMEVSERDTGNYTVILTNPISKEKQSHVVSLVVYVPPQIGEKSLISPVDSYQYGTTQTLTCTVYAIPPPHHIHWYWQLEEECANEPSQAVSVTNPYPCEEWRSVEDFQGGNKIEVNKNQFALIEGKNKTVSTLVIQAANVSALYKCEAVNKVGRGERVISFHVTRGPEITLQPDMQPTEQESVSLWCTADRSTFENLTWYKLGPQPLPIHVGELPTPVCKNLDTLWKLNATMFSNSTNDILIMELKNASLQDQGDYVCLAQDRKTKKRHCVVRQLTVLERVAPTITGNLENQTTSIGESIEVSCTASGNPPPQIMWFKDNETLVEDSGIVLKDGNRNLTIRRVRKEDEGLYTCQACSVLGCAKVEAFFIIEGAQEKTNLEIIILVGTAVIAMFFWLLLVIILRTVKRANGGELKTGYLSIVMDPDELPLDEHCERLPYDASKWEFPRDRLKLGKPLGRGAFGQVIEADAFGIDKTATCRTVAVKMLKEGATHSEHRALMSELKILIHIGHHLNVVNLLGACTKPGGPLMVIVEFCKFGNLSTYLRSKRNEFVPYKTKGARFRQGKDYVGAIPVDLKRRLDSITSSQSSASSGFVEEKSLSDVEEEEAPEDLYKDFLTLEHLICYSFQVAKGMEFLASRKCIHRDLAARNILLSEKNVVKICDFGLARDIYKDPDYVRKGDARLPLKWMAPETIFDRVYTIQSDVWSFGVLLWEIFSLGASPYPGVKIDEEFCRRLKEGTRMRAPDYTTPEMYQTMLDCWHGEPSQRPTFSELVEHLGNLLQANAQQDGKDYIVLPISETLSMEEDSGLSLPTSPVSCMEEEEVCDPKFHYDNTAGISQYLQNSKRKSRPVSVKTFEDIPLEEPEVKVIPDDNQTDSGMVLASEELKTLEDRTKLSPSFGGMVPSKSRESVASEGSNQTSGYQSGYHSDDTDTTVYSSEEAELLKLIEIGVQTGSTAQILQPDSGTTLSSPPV
Test Summary: Inhibitory activity against recombinant human KDR
Experimental Endpoint: pIC50
Remember the convention: pIC50 equals -log10 of concentration in molar.

*Q* Return pIC50 measured with Vascular endothelial growth factor receptor 2 (Homo sapiens) given this compound: COc1ccc(N2Cc3cnc(Nc4ccc(F)cc4)nc3N(C3CC[C@@H](O)C3)C2=O)cc1 (single isomer, unassigned)
*A* 7.30

====

Assayed System: Cyclin-dependent kinase 1/cyclin B (Homo sapiens, UniProt P06493)
Test Summary: Inhibition of CDK1/cyclinB
Experimental Endpoint: IC50

*Q* Return IC50 measured with Cyclin-dependent kinase 1/cyclin B (Homo sapiens, UniProt P06493) given this compound: COc1ccc(N2Cc3cnc(Nc4ccc(F)cc4)nc3N(C3CC[C@@H](O)C3)C2=O)cc1 (single isomer, unassigned)
*A* > 125 µM
